biological target: T1, human transferrin receptor (recombinant, for surface plasmon resonance) (human, UniProt P02786 89-760); assay: SPR 25C
T1 construct: also called huTfR; human transferrin receptor-biotinylated
T1 sequence (P02786 89-760 limits assumed): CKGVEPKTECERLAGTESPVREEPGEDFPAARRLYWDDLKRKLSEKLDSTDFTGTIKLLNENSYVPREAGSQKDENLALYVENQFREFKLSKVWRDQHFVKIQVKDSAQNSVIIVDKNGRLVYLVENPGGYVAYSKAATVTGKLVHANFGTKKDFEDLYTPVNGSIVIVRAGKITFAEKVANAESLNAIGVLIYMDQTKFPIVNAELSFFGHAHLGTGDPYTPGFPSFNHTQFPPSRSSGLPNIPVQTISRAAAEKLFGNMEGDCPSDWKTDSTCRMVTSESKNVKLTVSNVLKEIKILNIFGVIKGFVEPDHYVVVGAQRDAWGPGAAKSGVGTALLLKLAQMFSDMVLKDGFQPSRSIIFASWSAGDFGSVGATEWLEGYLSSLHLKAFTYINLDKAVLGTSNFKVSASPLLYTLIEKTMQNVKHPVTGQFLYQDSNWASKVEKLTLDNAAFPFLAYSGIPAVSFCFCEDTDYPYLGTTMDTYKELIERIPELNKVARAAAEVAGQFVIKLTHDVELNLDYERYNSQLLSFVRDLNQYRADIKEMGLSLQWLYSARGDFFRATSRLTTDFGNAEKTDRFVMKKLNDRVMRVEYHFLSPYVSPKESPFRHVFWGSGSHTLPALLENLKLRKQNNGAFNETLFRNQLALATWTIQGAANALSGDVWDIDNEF
assayReadout: koff (s⁻¹)
Numbers only, in s⁻¹.

Consider the worked cases shown below.
{"binder": "2/99 VH19/VL2 (antibody, V domains shown) VH: QSMQESGPGLVKPSQTLSLTCTVSGFSLSSYAMSWIRQHPGKGLEWIGYIWSGGSTDYAPSLKSRVTISVDTSKNQFSLKLSSVTAADTAVYYCARRYGTSYPDYGDANGFDPWGQGTLVTVSS VL: DIQMTQSPSSLSASVGDRVTITCRASQSISSYLNWYQQKPGKAPKLLIYRASTLASGVPSRFSGSGSGTDFTLTISSLQPEDFATYYCQQSYSSSNVDNTFGGGTKVEIK", "koff / s⁻¹": 0.00769}
{"binder": "2/99 VH2/VL8 (antibody, V domains shown) VH: EVQLVETGGGLIQPGGSLRLSCAASGFSLSSYAMSWVRQAPGKGLEWVGYIWSGGSTDYADSVKGRFTISRDNSKNTLYLQMNSLRAEDTAVYYCARRYGTSYPDYGDANGFDPWGQGTLVTVSS VL: AYQLTQSPSSLSASVGDRVTITCRASQSISSYLSWYQQKPGKAPKLLIYRASTLASGVPSRFSGSGSGTDFTLTISSLQPEDFATYYCQQSYSSSNVDNTFGGGTKVEIK", "koff / s⁻¹": 0.00394}

Attention now turns to another entry.
Query :: Please report the measured koff for 2/99 VH17/VL5 (antibody, V domains shown) VH: QQLQESGPGLVKPSETLSLTCTVSGFSLSSYAMSWVRQPPGKGLEWIGYIWSGGSTDYNPSLKSRVTISKDTSKNQVSLKLSSVTAADTAVYYCARRYGTSYPDYGDANGFDPWGPGTLVTVSS VL: DIQMTQSPSSLSASVGDRVTITCRASQSISSYLSWYQQKPGKAPKLLIYRASTLASGVPSRFSGSGSGTDFTLTISSLQPEDFATYYCQQSYSSSNVDNTFGGGTKVEIK
Result :: 0.00123
